- System: SARSCoV
- assay_protocol: organism not typed
- Format: cell-based
- experimental_context: read-out: SARSCoV IC50
Consider the following compounds; for each one, report its IC50.

Query: State its IC50 for this compound: "Nc1nc(O)c2[nH]cc([C@@H]3C=C(CO)[C@@H](O)[C@H]3O)c2n1"
Result: > 100 µM

Query: Please look at this compound and report its IC50: "O=c1[nH]cc([C@@H]2C=C(CO)[C@@H](O)[C@H]2O)c(=O)[nH]1"
Result: > 100 µM

Query: Give the measured IC50 for "Nc1nc(=O)c([C@@H]2C=C(CO)[C@@H](O)[C@H]2O)c[nH]1"
Result: > 100 µM
